- System: E. coli ATCC25922
- Assay Notes: MIC susceptibility testing, broth microdilution in CaMHB
- Format: cell-based, Escherichia coli
- Condition Label: Table 4A, different batches of cation-adjusted Muller-Hinton broth
Where a SMILES comes first, the peptide text is derived from it. Bridges are numbered along the chain shown (N, C = ends). [ ]: non-standard residue; d: D form. The star is where a group is joined. ξ: configuration not given here. Octanoyl(3-OH) = CCCCCC(O)CC(=O)*; X8 = O=C([C@H]1CC[C@H](O)CC1)*; Thr(3ξ) = CC(O)[C@H](N)C(=O)O; Dab = NCC[C@H](N)C(=O)O; X7 = NC1CCC(C(=O)*)CC1; X1 = CCCCCCC(O)C(=O)*; Ahp = NCCCCCCC(=O)O; Ava = NCCCCC(=O)O
Kindly state MIC for each of the entries shown.
One number for each entry, in micrograms/mL.

For each of the compounds below, state MIC.
1. CC(C)C[C@@H]1NC(=O)[C@@H](Cc2ccccc2)NC(=O)[C@H](CCN)NC(=O)[C@@H](NC(=O)[C@H](CCN)NC(=O)[C@@H](NC(=O)CCCCCCN)C(C)O)CCNC(=O)[C@H](C(C)O)NC(=O)[C@H](CCN)NC(=O)[C@H](CCN)NC1=O (stereo partly drawn) [Example 19, 7-Aminoheptanoyl polymyxin B nonapeptide] (H-[Ahp][Thr(3ξ)][Dab][Dab][Dab][dF]L[Dab][Dab][Thr(3ξ)]; lactam 4-C)
2. CCCCCC(O)CC(=O)N[C@H](C(=O)N[C@@H](CCN)C(=O)N[C@H]1CCNC(=O)[C@H](C(C)O)NC(=O)[C@H](CCN)NC(=O)[C@H](CCN)NC(=O)[C@H](CC(C)C)NC(=O)[C@@H](Cc2ccccc2)NC(=O)[C@H](CCN)NC1=O)C(C)O (stereo partly drawn) [Example 17] ({Octanoyl(3-OH)}-[Thr(3ξ)][Dab][Dab][Dab][dF]L[Dab][Dab][Thr(3ξ)]; lactam 3-C)
3. CC(C)C[C@@H]1NC(=O)[C@@H](Cc2ccccc2)NC(=O)[C@H](CCN)NC(=O)[C@@H](NC(=O)[C@H](CCN)NC(=O)[C@@H](NC(=O)C2CCC(N)CC2)C(C)O)CCNC(=O)[C@H](C(C)O)NC(=O)[C@H](CCN)NC(=O)[C@H](CCN)NC1=O (stereo partly drawn) [Example 27] (X7-[Thr(3ξ)][Dab][Dab][Dab][dF]L[Dab][Dab][Thr(3ξ)]; lactam 3-C)
4. CCCCCCC(O)C(=O)N[C@H](C(=O)N[C@@H](CCN)C(=O)N[C@H]1CCNC(=O)[C@H](C(C)O)NC(=O)[C@H](CCN)NC(=O)[C@H](CCN)NC(=O)[C@H](CC(C)C)NC(=O)[C@@H](CC(C)C)NC(=O)[C@H](CCN)NC1=O)C(C)O (stereo partly drawn) [Example 26] (X1-[Thr(3ξ)][Dab][Dab][Dab][dL]L[Dab][Dab][Thr(3ξ)]; lactam 3-C)
5. CC(C)C[C@@H]1NC(=O)[C@@H](Cc2ccccc2)NC(=O)[C@H](CCN)NC(=O)[C@@H](NC(=O)[C@H](CCN)NC(=O)[C@@H](NC(=O)CCCCN)C(C)O)CCNC(=O)[C@H](C(C)O)NC(=O)[C@H](CCN)NC(=O)[C@H](CCN)NC1=O (stereo partly drawn) [Example 15, 5-Aminopentanoyl polymyxin B nonapeptide] (H-[Ava][Thr(3ξ)][Dab][Dab][Dab][dF]L[Dab][Dab][Thr(3ξ)]; lactam 4-C)
6. CC(C)C[C@@H]1NC(=O)[C@@H](Cc2ccccc2)NC(=O)[C@H](CCN)NC(=O)[C@@H](NC(=O)[C@H](CCN)NC(=O)[C@@H](NC(=O)[C@H]2CC[C@H](O)CC2)C(C)O)CCNC(=O)[C@H](C(C)O)NC(=O)[C@H](CCN)NC(=O)[C@H](CCN)NC1=O (stereo partly drawn) [Example 32] (X8-[Thr(3ξ)][Dab][Dab][Dab][dF]L[Dab][Dab][Thr(3ξ)]; lactam 3-C)

Result:
1. 1
2. 8
3. 2
4. 8
5. 2
6. 8

* * *

- Assay Notes: Pharmacokinetic and urinary clearance studies in rats
- Assay type: in vivo
- Condition Label: male, Sprague Dawley, rat, in vivo, iv, 1 mg/kg
Structures can show the parent of a compound that is named as a salt. Where a SMILES comes first, the peptide text is derived from it. Bridges are numbered along the chain shown (N, C = ends). [ ]: non-standard residue; d: D form. The star is where a group is joined. ξ: configuration not given here. Thr(3ξ) = CC(O)[C@H](N)C(=O)O; Dab = NCC[C@H](N)C(=O)O; X1 = CCCCCCC(O)C(=O)*; GABA = NCCCC(=O)O; βAla = NCCC(=O)O
Outcome Measure: AUC(0-inf) (ng·h/mL)
Give bare numbers, in ng·h/mL.

Known AUC(0-inf) results, listed for orientation:
Compound: CC(C)C[C@@H]1NC(=O)[C@@H](Cc2ccccc2)NC(=O)[C@H](CCN)NC(=O)[C@@H](NC(=O)[C@H](CCN)NC(=O)[C@@H](NC(=O)CCN)C(C)O)CCNC(=O)[C@H](C(C)O)NC(=O)[C@H](CCN)NC(=O)[C@H](CCN)NC1=O (stereo partly drawn) [Example 4, Sulphate Salt] (H-[βAla][Thr(3ξ)][Dab][Dab][Dab][dF]L[Dab][Dab][Thr(3ξ)]; lactam 4-C)
AUC(0-inf), ng·h/mL: 2030
//
Compound: CCCCCCC(O)C(=O)N[C@H](C(=O)N[C@@H](CCN)C(=O)N[C@H]1CCNC(=O)[C@H](C(C)O)NC(=O)[C@H](CCN)NC(=O)[C@H](CCN)NC(=O)[C@H](CC(C)C)NC(=O)[C@@H](Cc2ccccc2)NC(=O)[C@H](CCN)NC1=O)C(C)O (stereo partly drawn) [Example 2, Sulphate Salt] (X1-[Thr(3ξ)][Dab][Dab][Dab][dF]L[Dab][Dab][Thr(3ξ)]; lactam 3-C)
AUC(0-inf), ng·h/mL: 4010

Continue with the compound presented below.
Q: # return recorded AUC(0-inf) for input CC(C)C[C@@H]1NC(=O)[C@@H](Cc2ccccc2)NC(=O)[C@H](CCN)NC(=O)[C@@H](NC(=O)[C@H](CCN)NC(=O)[C@@H](NC(=O)CCCN)[C@@H](C)O)CCNC(=O)[C@H]([C@@H](C)O)NC(=O)[C@H](CCN)NC(=O)[C@H](CCN)NC1=O [Example 6, Sulphate Salt] (H-[GABA]T[Dab][Dab][Dab][dF]L[Dab][Dab]T; lactam 4-C)
Result: 2620

* * *

- System: P. aeruginosa ATCC27853
- Assay Notes: MIC susceptibility testing, broth microdilution in CaMHB
- Format: cell-based, Pseudomonas aeruginosa
- Condition Label: Table 4A, different batches of cation-adjusted Muller-Hinton broth
Where a SMILES comes first, the peptide text is derived from it. Bridges are numbered along the chain shown (N, C = ends). [ ]: non-standard residue; d: D form. The star is where a group is joined. ξ: configuration not given here. Octanoyl(3-OH) = CCCCCC(O)CC(=O)*; X8 = O=C([C@H]1CC[C@H](O)CC1)*; Thr(3ξ) = CC(O)[C@H](N)C(=O)O; Propanoyl(3-OH) = O=C(CCO)*; X10 = O=C(CC[C@@H]1CCCN1)*; ξAoc(2) = CCCCCCC(N)C(=O)O; Dab = NCC[C@H](N)C(=O)O; Ava = NCCCCC(=O)O
Outcome Measure: MIC (micrograms/mL)
Give bare numbers, in micrograms/mL.

Molecule: CCCCCC(O)CC(=O)N[C@H](C(=O)N[C@@H](CCN)C(=O)N[C@H]1CCNC(=O)[C@H](C(C)O)NC(=O)[C@H](CCN)NC(=O)[C@H](CCN)NC(=O)[C@H](CC(C)C)NC(=O)[C@@H](Cc2ccccc2)NC(=O)[C@H](CCN)NC1=O)C(C)O (stereo partly drawn) [Example 17] ({Octanoyl(3-OH)}-[Thr(3ξ)][Dab][Dab][Dab][dF]L[Dab][Dab][Thr(3ξ)]; lactam 3-C)
MIC, micrograms/mL: 2
--
Molecule: CCCCCCC(N)C(=O)N[C@H](C(=O)N[C@@H](CCN)C(=O)N[C@H]1CCNC(=O)[C@H](C(C)O)NC(=O)[C@H](CCN)NC(=O)[C@H](CCN)NC(=O)[C@H](CC(C)C)NC(=O)[C@@H](Cc2ccccc2)NC(=O)[C@H](CCN)NC1=O)C(C)O (stereo partly drawn) [Example 35] (H-[ξAoc(2)][Thr(3ξ)][Dab][Dab][Dab][dF]L[Dab][Dab][Thr(3ξ)]; lactam 4-C)
MIC, micrograms/mL: 0.25
--
Molecule: CC(C)C[C@@H]1NC(=O)[C@@H](Cc2ccccc2)NC(=O)[C@H](CCN)NC(=O)[C@@H](NC(=O)[C@H](CCN)NC(=O)[C@@H](NC(=O)CC[C@@H]2CCCN2)C(C)O)CCNC(=O)[C@H](C(C)O)NC(=O)[C@H](CCN)NC(=O)[C@H](CCN)NC1=O (stereo partly drawn) [Example 30] (X10-[Thr(3ξ)][Dab][Dab][Dab][dF]L[Dab][Dab][Thr(3ξ)]; lactam 3-C)
MIC, micrograms/mL: 0.125
--
Molecule: CC(C)C[C@@H]1NC(=O)[C@@H](Cc2ccccc2)NC(=O)[C@H](CCN)NC(=O)[C@@H](NC(=O)[C@H](CCN)NC(=O)[C@@H](NC(=O)[C@H]2CC[C@H](O)CC2)C(C)O)CCNC(=O)[C@H](C(C)O)NC(=O)[C@H](CCN)NC(=O)[C@H](CCN)NC1=O (stereo partly drawn) [Example 32] (X8-[Thr(3ξ)][Dab][Dab][Dab][dF]L[Dab][Dab][Thr(3ξ)]; lactam 3-C)
MIC, micrograms/mL: 0.125

For each of the molecules below, state MIC.
1. CC(C)C[C@@H]1NC(=O)[C@@H](Cc2ccccc2)NC(=O)[C@H](CCN)NC(=O)[C@@H](NC(=O)[C@H](CCN)NC(=O)[C@@H](NC(=O)CCCCN)C(C)O)CCNC(=O)[C@H](C(C)O)NC(=O)[C@H](CCN)NC(=O)[C@H](CCN)NC1=O (stereo partly drawn) [Example 15, 5-Aminopentanoyl polymyxin B nonapeptide] (H-[Ava][Thr(3ξ)][Dab][Dab][Dab][dF]L[Dab][Dab][Thr(3ξ)]; lactam 4-C)
2. CC(C)C[C@@H]1NC(=O)[C@@H](Cc2ccccc2)NC(=O)[C@H](CCN)NC(=O)[C@@H](NC(=O)[C@H](CCN)NC(=O)[C@@H](NC(=O)CCO)C(C)O)CCNC(=O)[C@H](C(C)O)NC(=O)[C@H](CCN)NC(=O)[C@H](CCN)NC1=O (stereo partly drawn) [Example 33] ({Propanoyl(3-OH)}-[Thr(3ξ)][Dab][Dab][Dab][dF]L[Dab][Dab][Thr(3ξ)]; lactam 3-C)

Result:
1. 0.25
2. 0.5
